Reported growth by item:
- System: MCF7 breast
- method summary: NCI-60 one-dose screen, 48 h (100 = growth as untreated, 0 = no growth, -100 = all killed)
- applied conditions: 10 µM unless noted
- Description: Growth inhibition of the MCF7 human tumor cell line is measured as a screen for anti-cancer activity. Cells are grown in 96 well plates and exposed to the test compound for 48 hours. Compounds are tested at a single concentration, which is 10^-5 M for most compounds. The reported endpoint is percent growth (GI% or GIPRCNT), where numbers from 0 - 100% represent growth inhibition, and numbers from -100% - 0 represent cell death. For example, a value of 40 represents 60% growth inhibition. […]
Compounds without any hit were thinned out: in the full panel of roughly 83,000, 20% have a hit. Active and inactive are the calls of the source. How the source made its calls: active means growth percent below 10; inactive means the rest.

// worked examples, growth included
Exercise: Give MCF7 breast growth for the following compound: "O=c1ccc2ccccc2o1"
Solution: 98.3% (inactive)

Exercise: Give MCF7 breast growth for the following compound: "Nc1cc(Br)c(-c2nnc(CCC(=O)c3nc4ccccc4[nH]3)o2)c(Br)c1"
Solution: 18.9% (inactive)

Exercise: Give MCF7 breast growth for the following compound: "CCOC(=O)c1c(Cl)c2c(n1Cc1ccc(OC)cc1)-c1oncc1CCC2"
Solution: 82.3% (inactive)

Next:
Exercise: Give MCF7 breast growth for the following compound: "Cc1c(C(=O)Nc2nc(-c3ccccc3)cs2)nnn1-c1cccc2ccccc12"
Solution: 38.7% [50 µM] (inactive)

Source listed as PubChem BioAssay (NCI).
